Target: T1, human EphA2 (Homo sapiens, UniProt P29317)
T1 construct: a protein of the extracellular region of each human Eph receptor fused with the SEAP protein and the His tag; made in house; host or cells: Expi293F cells (culture supernatant)
T1 sequence (P29317 24-537 limits assumed): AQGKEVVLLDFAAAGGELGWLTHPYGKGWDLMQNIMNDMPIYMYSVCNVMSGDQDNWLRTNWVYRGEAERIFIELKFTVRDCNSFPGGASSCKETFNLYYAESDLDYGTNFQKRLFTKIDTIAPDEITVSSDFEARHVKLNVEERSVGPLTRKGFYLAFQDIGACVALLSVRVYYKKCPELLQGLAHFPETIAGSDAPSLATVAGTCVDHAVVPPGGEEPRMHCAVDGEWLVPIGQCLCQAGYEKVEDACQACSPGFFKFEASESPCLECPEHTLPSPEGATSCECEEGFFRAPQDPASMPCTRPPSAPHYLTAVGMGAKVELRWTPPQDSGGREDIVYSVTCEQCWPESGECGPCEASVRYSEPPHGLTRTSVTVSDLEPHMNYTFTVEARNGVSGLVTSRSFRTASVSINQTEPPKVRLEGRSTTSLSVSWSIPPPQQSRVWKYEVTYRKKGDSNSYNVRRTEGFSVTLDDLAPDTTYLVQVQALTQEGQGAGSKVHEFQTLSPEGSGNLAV
Assay: Selectivity ELISA of humanized antibodies for human Eph receptor
Assay type: binding
Details: coated protein 1 nM
ENDPOINT: hEphA2-SEAP-: absorbance at 450 nm, percentage with respect to hEphA4-SEAP-His as 100% (%)
Form entry: value (%) — number only.

Examples with answers:
- MOLECULE: "77 (antibody, V domains shown, synthetic humanized antibody heavy chain variable region sequence; synthetic humanized antibody light chain variable region sequence) VH: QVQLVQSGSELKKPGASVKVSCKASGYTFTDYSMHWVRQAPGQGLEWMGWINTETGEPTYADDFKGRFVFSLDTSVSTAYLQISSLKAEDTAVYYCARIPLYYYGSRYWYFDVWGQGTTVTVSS VL: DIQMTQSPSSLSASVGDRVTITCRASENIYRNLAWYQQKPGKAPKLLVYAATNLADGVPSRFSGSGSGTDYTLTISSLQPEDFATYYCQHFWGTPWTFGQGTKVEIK"
  OBSERVED MEASUREMENT: 4.5
- MOLECULE: "155 (antibody, V domains shown, synthetic humanized antibody heavy chain variable region sequence; synthetic humanized antibody light chain variable region sequence) VH: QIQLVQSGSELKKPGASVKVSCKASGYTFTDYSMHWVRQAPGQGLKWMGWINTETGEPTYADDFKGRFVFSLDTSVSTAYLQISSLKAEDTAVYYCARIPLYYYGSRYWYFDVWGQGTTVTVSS VL: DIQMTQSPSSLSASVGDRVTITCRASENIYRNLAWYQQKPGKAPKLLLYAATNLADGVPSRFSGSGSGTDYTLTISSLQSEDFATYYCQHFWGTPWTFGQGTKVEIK"
  OBSERVED MEASUREMENT: 5.5
- MOLECULE: "133 (antibody, V domains shown, synthetic humanized antibody heavy chain variable region sequence; synthetic humanized antibody light chain variable region sequence) VH: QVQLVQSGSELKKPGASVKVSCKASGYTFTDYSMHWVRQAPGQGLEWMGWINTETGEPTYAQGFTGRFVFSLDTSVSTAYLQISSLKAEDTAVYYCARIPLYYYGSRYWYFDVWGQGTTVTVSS VL: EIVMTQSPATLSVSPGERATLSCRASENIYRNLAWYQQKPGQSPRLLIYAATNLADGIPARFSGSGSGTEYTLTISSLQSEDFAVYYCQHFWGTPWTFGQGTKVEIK"
  OBSERVED MEASUREMENT: 4.7

// moving on: another record for hEphA2-SEAP-: absorbance at 450 nm, percentage with respect to hEphA4-SEAP-His as 100%
-- ask Output measured hEphA2-SEAP-: absorbance at 450 nm, percentage with respect to hEphA4-SEAP-His as 100% for this item: 73 (antibody, V domains shown, synthetic humanized antibody heavy chain variable region sequence; synthetic humanized antibody light chain variable region sequence) VH: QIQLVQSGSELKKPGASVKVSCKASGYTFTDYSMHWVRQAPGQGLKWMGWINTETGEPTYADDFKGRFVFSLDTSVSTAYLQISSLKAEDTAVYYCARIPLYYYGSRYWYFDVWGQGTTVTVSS VL: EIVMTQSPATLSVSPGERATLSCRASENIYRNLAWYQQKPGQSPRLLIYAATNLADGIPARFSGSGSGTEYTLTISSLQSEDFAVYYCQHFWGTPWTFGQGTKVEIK
-- reply 5.7

Each recorded value in this set is attributed to patent US10428140B2.
